system tested: T1, human TIGIT on Jurkat cells (TIGIT/NFAT reporter Jurkat cells, BPS Bioscience #60538); Promega TIGIT Effector … (human, UniProt Q495A1 22-244)
T1 construct: whole, on cells; Same protein on two bought Jurkat lines (flow cytometry: BPS; bioassay: Promega); also called hu TIGIT cells; cells expressing human TIGIT
T1 sequence (looked up): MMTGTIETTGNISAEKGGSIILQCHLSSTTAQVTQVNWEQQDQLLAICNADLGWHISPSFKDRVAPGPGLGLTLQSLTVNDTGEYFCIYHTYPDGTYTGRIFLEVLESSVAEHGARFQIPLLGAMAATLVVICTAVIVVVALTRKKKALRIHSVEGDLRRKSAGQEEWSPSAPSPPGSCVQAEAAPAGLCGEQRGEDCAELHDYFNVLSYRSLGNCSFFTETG
procedure details: flow cytometry, TIGIT/NFAT Jurkat cells, 10 ug/ml
result type: MFI
Hi, when you answer, please include the unit after the number. Thanks!

binder	reading
43586p1.2.B2 (scFv, V domains shown) VH: EMQLLESGGGLVQPGGSLRLSCAASGFTFDDYVMSWVRQAPGKGLEWVSLINWNGDKTYYADSVKGRFTISRDNSKNTLYLQMNSLRAEDTAIYYCAKHWIVFQYGMDVWGQGTTVTVSS VL: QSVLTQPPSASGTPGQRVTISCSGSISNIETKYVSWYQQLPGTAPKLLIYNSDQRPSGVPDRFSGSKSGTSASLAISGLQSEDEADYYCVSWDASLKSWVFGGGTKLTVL	9270 MFI
43645p1.F12 (scFv, V domains shown) VH: EVQLLESGGGLVQPGGSLRLSCAASGFTFSDYWMSWVRQAPGKGLEWVSSINWNGDNTYYYADSVKGRFTISRDNSKNTLYLQMNSLRAEDTAVYYCAKSHTVLQYGMDVWGQGTTVTVSS VL: QSVLTQPPSASGTPGQRVTISCSGSSSNIQSNYVYWYQQLPGTAPKLLIYGNHQRPSGVPDRFSGSKSDTSASLAISGLQSEDEADYYCATWDASLNVWVFGGGTKLTVL	4100 MFI

Now consider a different binder.
**Q:** Indicate the recorded MFI value for this binder: 43586p2.B02 (scFv, V domains shown) VH: EVQLLESGGGLVQPGGSLRLSCAASGFTFTSYAMSWVSQAPGKGLEWVAGISYDGSSKYYADSVKGRLTISRDNSKNTLYLQMNSLRAEDTAIYYCAKHLTGGTTDYYYYAMDVWGQGTTVTVSS VL: QSVLTQPPSASGTPGQRVTISCSGSRSNIGTNRYVHWYQQLPGTAPKLLIYGNHQRPSGVPDRFSGSKSGTSASLAISGLQSEDEADYYCAAWDDSLSAWVFGGGTKLTVL
**A:** 9090 MFI
